# System: M14 melanoma
# experiment: NCI tumour cell line growth inhibition, 48 h
Please go through the items and note down their TGI.

Example entries begin here.
{"molecule": "Cc1cc2c(cc1C)[n+](=O)c(C(=O)C/C(=N/NC(=O)CC#N)C(=O)Nc1ccccc1C(F)(F)F)c(C)n2[O-]", "measurement-kind": "TGI", "assay-value": "> 100 µM"}
{"molecule": "COc1cc([N+](=O)[O-])cc2c3c(n(C)c12)[C@@]1(C)CCC2c4ccc(OCc5ccccc5)cc4CCC2C1C3 (some centres undefined)", "measurement-kind": "TGI", "assay-value": "> 100 µM"}
{"molecule": "Oc1ccc(NCc2nc3ccccc3[nH]2)cc1", "measurement-kind": "TGI", "assay-value": "> 100 µM"}
{"molecule": "N#Cc1c(-c2ccc(F)cc2)nc(N/N=C/c2c[nH]c3ccccc23)nc1N1CCOCC1", "measurement-kind": "TGI", "assay-value": "4.87 µM"}
{"molecule": "O=C(c1ccccc1)c1nnc(C(=O)c2ccccc2)nn1", "measurement-kind": "TGI", "assay-value": "> 344 µM"}
{"molecule": "OCC(O)CC[CH2][Sn]([Br])([c]1ccccc1)[c]1ccccc1 (centres undefined)", "measurement-kind": "TGI", "assay-value": "> 100 µM"}

Working through the 7 molecules below one at a time, give TGI for each.
1. CCC(C)c1c(Cl)nc(Cl)nc1Cl (centres undefined)
2. Cc1nc(C)c(Cc2ccccc2)o1
3. O=C1C=CC(=O)c2c(O)c(NCCc3ccc(O)cc3)c(Cl)c(O)c21
4. COC(=O)[C@]12CC[C@@H](C)[C@H](C)[C@@H]1C1=CC[C@@H]3[C@@]4(C)C/C(=N\O)[C@H](O)[C@@]5(C)COC(=C45)C[C@@]3(C)[C@]1(C)CC2
5. CC(=O)OC/C=C(/C=C/CNC1CCCCC1)OC(C)=O
6. O=c1/c(=C/c2ccco2)sc2nc3ccccc3n12
7. COc1ccc(/C=C/c2nccc3ccccc23)cc1OC

OUT:
1. 3.43 µM
2. > 100 µM
3. > 10 µM
4. 27.7 µM
5. 21.2 µM
6. > 100 µM
7. > 10 µM
